FYI, the data here is from the supplement of paper PMC7877785.

- Test protocol: self-splicing fitness, log relative to wild type (ln ratio); higher = more splicing; Tetrahymena group I intron in knt gene, E. coli kanamycin selection, DiMSum; sequences stand for … in CUCUCU…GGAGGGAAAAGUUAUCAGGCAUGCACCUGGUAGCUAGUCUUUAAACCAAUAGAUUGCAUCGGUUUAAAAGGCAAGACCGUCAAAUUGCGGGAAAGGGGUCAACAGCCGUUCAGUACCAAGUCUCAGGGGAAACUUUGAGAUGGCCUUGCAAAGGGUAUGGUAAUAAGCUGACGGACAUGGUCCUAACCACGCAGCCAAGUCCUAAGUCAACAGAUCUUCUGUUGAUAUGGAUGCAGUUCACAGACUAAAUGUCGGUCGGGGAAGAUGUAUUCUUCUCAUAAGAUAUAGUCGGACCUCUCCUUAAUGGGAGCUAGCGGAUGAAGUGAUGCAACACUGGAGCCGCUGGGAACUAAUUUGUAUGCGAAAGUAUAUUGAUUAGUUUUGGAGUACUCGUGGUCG;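 note: selection with 25 µg/mL kanamycin versus none on LB agar overnight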
- Settings: 30 °C
The label depends only on self-splicing fitness (ln): y if it is at least -1, n if it is smaller.

Prompt: Item ACACAGCAAUAUUACGGUAA with self-splicing fitness (ln) of -1 or above?
Completion: n

Prompt: Item AAUUAGCAAUAUUACGAUGU with self-splicing fitness (ln) of -1 or above?
Completion: y

Prompt: Item AUUAAGCAAUAUUACGCAGU with self-splicing fitness (ln) of -1 or above?
Completion: n

Prompt: Item GGAUAGCAAUAUUACGAACU with self-splicing fitness (ln) of -1 or above?
Completion: y

Prompt: Item UCGAAGCAAUAUUACGUUUA with self-splicing fitness (ln) of -1 or above?
Completion: n

Prompt: Item UGACAGCAAUAUUACGAGUA with self-splicing fitness (ln) of -1 or above?
Completion: n

Prompt: Item CUGUAGCAAUAUUACGACAA with self-splicing fitness (ln) of -1 or above?
Completion: y

Prompt: Item UCAAAGCAAUAUUACGUCGA with self-splicing fitness (ln) of -1 or above?
Completion: y

Prompt: Item CGUGAGCAAUAUUACGGACA with self-splicing fitness (ln) of -1 or above?
Completion: n

Prompt: Item GUCUAGCAAUAUUACGCACC with self-splicing fitness (ln) of -1 or above?
Completion: n

Prompt: Item UCUUAGCAAUAUUACGCUGU with self-splicing fitness (ln) of -1 or above?
Completion: n

---

- Test protocol: self-splicing fitness, log relative to wild type (ln ratio); higher = more splicing; Tetrahymena group I intron in knt gene, E. coli kanamycin selection, DiMSum; sequences stand for … in CUCUCU…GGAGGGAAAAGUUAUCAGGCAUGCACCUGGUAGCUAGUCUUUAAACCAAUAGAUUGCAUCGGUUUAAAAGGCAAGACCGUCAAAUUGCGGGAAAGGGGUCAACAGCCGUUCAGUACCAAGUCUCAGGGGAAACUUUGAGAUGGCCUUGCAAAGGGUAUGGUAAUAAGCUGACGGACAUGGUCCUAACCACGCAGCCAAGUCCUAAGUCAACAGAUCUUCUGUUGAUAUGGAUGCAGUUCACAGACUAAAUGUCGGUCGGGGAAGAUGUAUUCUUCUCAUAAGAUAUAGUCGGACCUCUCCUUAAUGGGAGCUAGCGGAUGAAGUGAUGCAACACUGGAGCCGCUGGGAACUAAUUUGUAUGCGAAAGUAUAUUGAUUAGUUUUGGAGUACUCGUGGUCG
- Settings: 37 °C
Measurement kind: self-splicing fitness (ln)

Prompt: Dear colleague, please send me the reported self-splicing fitness (ln) for ACUGAGCAAUAUUACGCGUG when you can.
Completion: -1.05

Prompt: Dear colleague, please send me the reported self-splicing fitness (ln) for GAGGAGCAAUAUUACGUGGG when you can.
Completion: -1.91

Prompt: Dear colleague, please send me the reported self-splicing fitness (ln) for UUGAAGCAAUAUUACGUAAA when you can.
Completion: -0.368

Prompt: Dear colleague, please send me the reported self-splicing fitness (ln) for GUCGAGCAAUAUUACGUUGC when you can.
Completion: -2.25

Prompt: Dear colleague, please send me the reported self-splicing fitness (ln) for GUCAAGCAAUAUUACGAAUU when you can.
Completion: -1.82

Prompt: Dear colleague, please send me the reported self-splicing fitness (ln) for GAAGAGCAAUAUUACGGGUU when you can.
Completion: -2.22

Prompt: Dear colleague, please send me the reported self-splicing fitness (ln) for CUUGAGCAAUAUUACGGUUA when you can.
Completion: -3.21

Prompt: Dear colleague, please send me the reported self-splicing fitness (ln) for AAAAAGCAAUAUUACGUGGC when you can.
Completion: -1.59

Prompt: Dear colleague, please send me the reported self-splicing fitness (ln) for GAUCAGCAAUAUUACGACCU when you can.
Completion: -0.346

Prompt: Dear colleague, please send me the reported self-splicing fitness (ln) for AUAUAGCAAUAUUACGAUCG when you can.
Completion: -0.815

Prompt: Dear colleague, please send me the reported self-splicing fitness (ln) for UAACAGCAAUAUUACGUUAC when you can.
Completion: -3.09

Prompt: Dear colleague, please send me the reported self-splicing fitness (ln) for AUUUAGCAAUAUUACGUAGG when you can.
Completion: -2.02

Prompt: Dear colleague, please send me the reported self-splicing fitness (ln) for UUAAAGCAAUAUUACGAGGC when you can.
Completion: -2.36

Prompt: Dear colleague, please send me the reported self-splicing fitness (ln) for UGGGAGCAAUAUUACGUGUU when you can.
Completion: -2.91

Prompt: Dear colleague, please send me the reported self-splicing fitness (ln) for CCUUAGCAAUAUUACGGGUG when you can.
Completion: -0.759

Prompt: Dear colleague, please send me the reported self-splicing fitness (ln) for AACUAGCAAUAUUACGAACG when you can.
Completion: -0.339

Prompt: Dear colleague, please send me the reported self-splicing fitness (ln) for GACGAGCAAUAUUACGAUUU when you can.
Completion: -1.19

Prompt: Dear colleague, please send me the reported self-splicing fitness (ln) for CGGAAGCAAUAUUACGAUAC when you can.
Completion: -2.22

Prompt: Dear colleague, please send me the reported self-splicing fitness (ln) for CUACAGCAAUAUUACGAACU when you can.
Completion: -2.02

Prompt: Dear colleague, please send me the reported self-splicing fitness (ln) for CCGGAGCAAUAUUACGCAUG when you can.
Completion: 0.0371

Prompt: Dear colleague, please send me the reported self-splicing fitness (ln) for GGCAAGCAAUAUUACGACGC when you can.
Completion: -0.105

Prompt: Dear colleague, please send me the reported self-splicing fitness (ln) for GUGUAGCAAUAUUACGGGAG when you can.
Completion: -2.88

Prompt: Dear colleague, please send me the reported self-splicing fitness (ln) for AGUUAGCAAUAUUACGCUAU when you can.
Completion: -1.21

Prompt: Dear colleague, please send me the reported self-splicing fitness (ln) for AACAAGCAAUAUUACGCGGG when you can.
Completion: -2.46

Prompt: Dear colleague, please send me the reported self-splicing fitness (ln) for CUGUAGCAAUAUUACGCUUG when you can.
Completion: -2.02

Prompt: Dear colleague, please send me the reported self-splicing fitness (ln) for ACUGAGCAAUAUUACGGUCG when you can.
Completion: -1.46

Prompt: Dear colleague, please send me the reported self-splicing fitness (ln) for CCAAAGCAAUAUUACGUUCU when you can.
Completion: -2.3

Prompt: Dear colleague, please send me the reported self-splicing fitness (ln) for ACUAAGCAAUAUUACGAGGU when you can.
Completion: -3.37

Prompt: Dear colleague, please send me the reported self-splicing fitness (ln) for GGGUAGCAAUAUUACGGUCA when you can.
Completion: -0.659

Prompt: Dear colleague, please send me the reported self-splicing fitness (ln) for UACAAGCAAUAUUACGGCCA when you can.
Completion: 0.111

Prompt: Dear colleague, please send me the reported self-splicing fitness (ln) for UAGAAGCAAUAUUACGCUUC when you can.
Completion: -2.81

Prompt: Dear colleague, please send me the reported self-splicing fitness (ln) for GUGAAGCAAUAUUACGGUUU when you can.
Completion: -0.906

Prompt: Dear colleague, please send me the reported self-splicing fitness (ln) for UCAGAGCAAUAUUACGGGCG when you can.
Completion: -2

Prompt: Dear colleague, please send me the reported self-splicing fitness (ln) for GCCCAGCAAUAUUACGUCUG when you can.
Completion: -2.73

Prompt: Dear colleague, please send me the reported self-splicing fitness (ln) for CUAGAGCAAUAUUACGUGUU when you can.
Completion: -2.8

Prompt: Dear colleague, please send me the reported self-splicing fitness (ln) for AGAGAGCAAUAUUACGUGAA when you can.
Completion: -2.16

Prompt: Dear colleague, please send me the reported self-splicing fitness (ln) for AUCAAGCAAUAUUACGACAA when you can.
Completion: -0.427

Prompt: Dear colleague, please send me the reported self-splicing fitness (ln) for UGCUAGCAAUAUUACGGCUA when you can.
Completion: 0.345

Prompt: Dear colleague, please send me the reported self-splicing fitness (ln) for CGCAAGCAAUAUUACGCAAU when you can.
Completion: -2.14

Prompt: Dear colleague, please send me the reported self-splicing fitness (ln) for CGCCAGCAAUAUUACGCGAA when you can.
Completion: -1.38

Prompt: Dear colleague, please send me the reported self-splicing fitness (ln) for CUCAAGCAAUAUUACGACGU when you can.
Completion: -1.54

Prompt: Dear colleague, please send me the reported self-splicing fitness (ln) for GUAAAGCAAUAUUACGAUCA when you can.
Completion: -0.197

Prompt: Dear colleague, please send me the reported self-splicing fitness (ln) for GGGUAGCAAUAUUACGACAG when you can.
Completion: -1.9

Prompt: Dear colleague, please send me the reported self-splicing fitness (ln) for UAUUAGCAAUAUUACGCAUC when you can.
Completion: -1.7

Prompt: Dear colleague, please send me the reported self-splicing fitness (ln) for GCAGAGCAAUAUUACGUUUG when you can.
Completion: -2.77

Prompt: Dear colleague, please send me the reported self-splicing fitness (ln) for AAGCAGCAAUAUUACGAGGA when you can.
Completion: -2.16

Prompt: Dear colleague, please send me the reported self-splicing fitness (ln) for CGAGAGCAAUAUUACGUCUG when you can.
Completion: -1.31

Prompt: Dear colleague, please send me the reported self-splicing fitness (ln) for GCGCAGCAAUAUUACGACCA when you can.
Completion: -0.19

Prompt: Dear colleague, please send me the reported self-splicing fitness (ln) for CCGCAGCAAUAUUACGGCCG when you can.
Completion: 0.198

Prompt: Dear colleague, please send me the reported self-splicing fitness (ln) for GCUAAGCAAUAUUACGGUUA when you can.
Completion: -1.49

Prompt: Dear colleague, please send me the reported self-splicing fitness (ln) for GGGAAGCAAUAUUACGUGGC when you can.
Completion: -2.73

Prompt: Dear colleague, please send me the reported self-splicing fitness (ln) for UUAAAGCAAUAUUACGGAGA when you can.
Completion: 0.00703

Prompt: Dear colleague, please send me the reported self-splicing fitness (ln) for AUCCAGCAAUAUUACGUUGG when you can.
Completion: -2.97

Prompt: Dear colleague, please send me the reported self-splicing fitness (ln) for AUGAAGCAAUAUUACGCCCU when you can.
Completion: 0.202

Prompt: Dear colleague, please send me the reported self-splicing fitness (ln) for CGUAAGCAAUAUUACGUAGA when you can.
Completion: -3.25

Prompt: Dear colleague, please send me the reported self-splicing fitness (ln) for UUAUAGCAAUAUUACGGUGG when you can.
Completion: -0.924
